molecular target: Hepatitis C virus serine protease, NS3/NS4A (Hepatitis C virus, UniProt A3EZI9+D2K2A8); experiment: Inhibition of HCV (Hepatitis C Virus) NS3-4A protease.
Sequence (D2K2A8 whole entry): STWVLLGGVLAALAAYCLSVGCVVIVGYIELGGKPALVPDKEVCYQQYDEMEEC
Sequence (A3EZI9 whole entry): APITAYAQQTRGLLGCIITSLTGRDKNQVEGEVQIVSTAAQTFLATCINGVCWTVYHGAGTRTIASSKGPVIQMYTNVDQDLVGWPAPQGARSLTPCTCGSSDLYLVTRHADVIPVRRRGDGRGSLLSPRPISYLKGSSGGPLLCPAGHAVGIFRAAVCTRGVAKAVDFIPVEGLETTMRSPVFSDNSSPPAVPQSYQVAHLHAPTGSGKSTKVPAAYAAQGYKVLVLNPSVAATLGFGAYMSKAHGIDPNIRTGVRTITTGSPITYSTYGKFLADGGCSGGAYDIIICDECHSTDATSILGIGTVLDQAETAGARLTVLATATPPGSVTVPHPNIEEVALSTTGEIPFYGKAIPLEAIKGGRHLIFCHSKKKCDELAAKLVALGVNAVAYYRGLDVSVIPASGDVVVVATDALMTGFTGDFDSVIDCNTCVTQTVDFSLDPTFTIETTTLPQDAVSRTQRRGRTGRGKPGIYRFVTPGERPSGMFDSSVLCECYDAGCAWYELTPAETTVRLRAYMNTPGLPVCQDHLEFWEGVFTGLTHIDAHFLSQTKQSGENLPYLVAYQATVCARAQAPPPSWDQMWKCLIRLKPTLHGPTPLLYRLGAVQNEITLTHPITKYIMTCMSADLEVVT
Where a SMILES comes first, the peptide text is derived from it. [ ]: non-standard residue; d: D form. The star is where a group is joined. ξ: configuration not given here. Pyrazinecarbonyl = O=C(c1cnccn1)*; Hyp = O=C(O)[C@@H]1C[C@@H](O)CN1; ξAla(CF3) = NC(CC(F)(F)F)C(=O)O; Nva = CCC[C@H](N)C(=O)O; Abu = CC[C@H](N)C(=O)O; Bn = c1ccc(C*)cc1
Entries annotated with measured pKi
// pKi: -log10(molar conc.)

See these solved cases before continuing.
CC(C)[C@H](NC(=O)c1cnccn1)C(=O)N[C@H](C(=O)N1C[C@H](OCc2ccccc2)C[C@H]1C(=O)NC(C=O)CC(F)(F)F)C(C)C (stereo partly specified) (Pyrazinecarbonyl-VV[Hyp](Bn)[ξAla(CF3)]-aldehyde) = 5.51
CC[C@@H](C=O)NC(=O)[C@@H]1C[C@@H](OCc2ccccc2)CN1C(=O)[C@@H](NC(=O)[C@@H](NC(=O)c1cnccn1)C(C)C)C(C)C (Pyrazinecarbonyl-VV[Hyp](Bn)[Abu]-aldehyde) = 4.92
CC[C@@H](C=O)NC(=O)[C@@H]1C[C@@H](OCc2ccccc2)CN1C(=O)[C@@H](NC(=O)[C@@H](NC(=O)[C@H](CC(=O)O)NC(=O)[C@H](CCC(=O)O)NC(C)=O)C(C)C)C(C)C (Ac-EDVV[Hyp](Bn)[Abu]-aldehyde) = 6.05

# input pKi of CCC[C@@H](C=O)NC(=O)[C@@H]1C[C@@H](OCc2ccccc2)CN1C(=O)[C@@H](NC(=O)[C@@H](NC(=O)c1cnccn1)C(C)C)C(C)C (Pyrazinecarbonyl-VV[Hyp](Bn)[Nva]-aldehyde) on Hepatitis C virus serine protease, NS3/NS4A (Hepatitis C virus, UniProt A3EZI9+D2K2A8)?
# output 5.42

Numbers sourced from ChEMBL document CHEMBL1136438.
